# System: OVCAR-5 complex spheroids, viability
# EXPERIMENT_SUMMARY: Anticancer human tumor OVCAR-5 cell line growth inhibition;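 further: spheroids exposed to agents for seven days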
# CONDITIONS_USED: compound alone; run of 12/07/2021
MEASUREMENT_LABEL: IC50

Sample NC1CC1c1ccc(-c2cccc(O)c2)cc1 (stereo unspecified) — what was its IC50?
> 10 µM

###

# Tested on: OVCAR-5 complex spheroids, viability
# EXPERIMENT_SUMMARY: Anticancer human tumor OVCAR-5 cell line growth inhibition;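 further: spheroids exposed to agents for seven days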
# CONDITIONS_USED: second compound 10 µM; first compound 0.3 µM; stronger effect = lower value
Assign labels as follows, please: true for viability, T/C below 40%; false for viability, T/C equal to or exceeding 40%.

CCN(c1cc(-c2ccc(CN3CCOCC3)cc2)cc(C(=O)NCc2c(C)cc(C)[nH]c2=O)c1C)C1CCOCC1 + NC1CC1c1ccc(-c2cccc(O)c2)cc1
false

Bench note: check whether O=C(C=Cc1cccc(S(=O)(=O)Nc2ccccc2)c1)NO + NC1CCC(NC2CC2c2ccccc2)CC1 shows viability, T/C below 40%
true

Bench note: check whether COc1cc(C2c3cc4c(cc3C(OC3OC5COC(C)OC5C(O)C3O)C3COC(=O)C23)OCO4)cc(OC)c1O (stereo unspecified) + NC1CC1c1ccc(-c2cccc(O)c2)cc1 shows viability, T/C below 40%
false

Bench note: check whether Nc1ncn(C2CC(O)C(CO)S2)c(=O)n1 (stereo unspecified) + NC1CC1c1ccc(-c2cccc(O)c2)cc1 shows viability, T/C below 40%
false

Bench note: check whether Nc1ccn(C2OC(CO)C(O)C2(F)F)c(=O)n1 (stereo unspecified) + NC1CC1c1ccc(-c2cccc(O)c2)cc1 shows viability, T/C below 40%
true

Bench note: check whether COc1cc(C2c3cc4c(cc3C(OC3OC5COC(C)OC5C(O)C3O)C3COC(=O)C23)OCO4)cc(OC)c1O (stereo unspecified) + NC1CCC(NC2CC2c2ccccc2)CC1 shows viability, T/C below 40%
false

Bench note: check whether Nc1ccn(C2OC(CO)C(O)C2(F)F)c(=O)n1 (stereo unspecified) + NC1CCC(NC2CC2c2ccccc2)CC1 shows viability, T/C below 40%
true

Bench note: check whether Nc1ncn(C2CC(O)C(CO)S2)c(=O)n1 (stereo unspecified) + NC1CCC(NC2CC2c2ccccc2)CC1 shows viability, T/C below 40%
false

Bench note: check whether CCc1c2c(nc3ccc(O)cc13)-c1cc3c(c(=O)n1C2)COC(=O)[C@]3(O)CC + NC1CCC(NC2CC2c2ccccc2)CC1 shows viability, T/C below 40%
true

Bench note: check whether CCc1c2c(nc3ccc(O)cc13)-c1cc3c(c(=O)n1C2)COC(=O)[C@]3(O)CC + NC1CC1c1ccc(-c2cccc(O)c2)cc1 shows viability, T/C below 40%
true

Bench note: check whether Nc1ccccc1NC(=O)c1ccc(CNC(=O)OCc2cccnc2)cc1 + NC1CCC(NC2CC2c2ccccc2)CC1 shows viability, T/C below 40%
false

Bench note: check whether O=C(C=Cc1cccc(S(=O)(=O)Nc2ccccc2)c1)NO + NC1CC1c1ccc(-c2cccc(O)c2)cc1 shows viability, T/C below 40%
true

Bench note: check whether NS(=O)(=O)OCC1CC(n2ccc3c(NC4CCc5ccccc54)ncnc32)CC1O (stereo unspecified) + NC1CCC(NC2CC2c2ccccc2)CC1 shows viability, T/C below 40%
true
